Here, compounds appear alongside IC50 reported for Caspase-3 (Homo sapiens) in the literature.
Give a bare numeral; the unit nM is implied.

Here are 5 compounds together with their reported answers.
smiles_text | IC50, nM
CC(C)Cc1nnc2nc3c(nn12)-c1ccccc1C3=O | 629
CCc1nnc2nc3c(nn12)C(=O)c1cc(OC)c(OC)cc1-3 | 5200
C[C@H](NC(=O)c1c[nH]c(-c2ccccc2)n1)C(=O)N[C@@H](CC(=O)O)C(=O)COc1c(F)c(F)cc(F)c1F | 24
O=C(O)C[C@H](NC(=O)CN1CCN(S(=O)(=O)c2ccccc2)CC1)C(=O)COc1c(F)c(F)cc(F)c1F | 200
C[C@H](NC(=O)c1cc(-c2cccc(Cl)c2)on1)C(=O)N[C@@H](CC(=O)O)C(=O)COc1c(F)c(F)cc(F)c1F | 22

Please provide the recorded IC50 for CC(=O)C(=O)N(CC(=O)O)NC(=O)[C@@H](NC(=O)[C@H](CCC(=O)O)NC(=O)[C@H](CC(=O)O)NC(=O)OCc1ccccc1)C(C)C , tested on Caspase-3 (Homo sapiens).
55

Record lookup: for Caspase-3 (Homo sapiens), what IC50 belongs to C[C@H](NC(=O)c1coc(-c2ccccc2)n1)C(=O)N[C@@H](CC(=O)O)C(=O)COc1c(F)c(F)cc(F)c1F ?
20.2

====

// read-out IC50, gathered for Caspase-3 (Homo sapiens, UniProt P42574) from published studies

compound | IC50
O=C(NCC1CCNCC1)c1ccc2c(Cl)c3c(nc2c1)CCCC3 | > 200 µM
CCCN(CCC)CCNC(=O)c1ccc2c(Cl)c3c(nc2c1)CCCC3 | > 200 µM
O=C(CCc1ccccc1)N1CCC(O)(Cn2cnc3cc(Cl)ccc3c2=O)CC1 | > 200 µM
C[C@H](NC(=O)c1cc(-c2ccccc2)on1)C(=O)N[C@@H](CC(=O)O)C(=O)COc1c(F)c(F)cc(F)c1F | 0.0444 µM
C[C@H](NC(=O)C(=O)Nc1cccc(F)c1)C(=O)N[C@@H](CCC(=O)O)C(=O)COc1c(F)c(F)cc(F)c1F | ≥ 1 µM
CCN1CCCC1CNC(=O)c1ccc2c(Cl)c3c(nc2c1)CCCC3 (stereo not shown) | > 200 µM
CC(C)Cc1nnc2nc3c(nn12)C(=O)c1ccccc1-3 | > 100 µM
C[C@H](NC(=O)c1cc(-c2ccccc2C(F)(F)F)on1)C(=O)N[C@@H](CC(=O)O)C(=O)COc1c(F)c(F)cc(F)c1F | 0.03 µM
Cc1cccc(CN2CCC(CNC(=O)c3ccc4c(Cl)c5c(nc4c3)CCCC5)CC2)c1 | > 200 µM

Now look at this one.
Item under review: CCc1nnc2nc3c(nn12)C(=O)c1ccccc1-3 . Reported IC50?
11.6 µM

====

pIC50: −log10 of the molar value.
Field pIC50: reported value for Caspase-3 (Homo sapiens, UniProt P42574); entries drawn from several documents.

compound | pIC50
O=C(CCc1cccs1)N1CCC(O)(Cn2cnc3ccccc3c2=O)CC1 | < 3.70
C[C@H](NC(=O)C(=O)Nc1c(F)cccc1F)C(=O)N[C@@H](CCC(=O)OCc1ccccc1)C(=O)COc1c(F)c(F)cc(F)c1F | ≤ 6.00
C[C@H](NC(=O)C(=O)Nc1cnc2ccccc2c1)C(=O)N[C@@H](CCC(=O)O)C(=O)COc1c(F)c(F)cc(F)c1F | ≤ 6.00

Item CN1CCN(CCCNC(=O)c2ccc3c(Cl)c4c(nc3c2)CCCC4)CC1 has what recorded pIC50?
< 3.70

Please look up its pIC50: CCCCN(CC)CCNC(=O)c1ccc2c(Cl)c3c(nc2c1)CCCC3
< 3.70

Query (compound): C[C@H](NC(=O)C(=O)Nc1ccccc1C(C)(C)C)C(=O)N[C@@H](CCC(=O)O)C(=O)COc1c(F)c(F)cc(F)c1F ; field requested: pIC50
≤ 6.00

Could you share which pIC50 value was measured for Cc1cc(C)nc(NC(=O)C(=O)N[C@@H](C)C(=O)N[C@@H](CCC(=O)O)C(=O)COc2c(F)c(F)cc(F)c2F)n1 ?
≤ 6.00

What value of pIC50 has been reported for the following compound? C[C@H](NC(=O)C(=O)Nc1ccc(C(F)(F)F)cc1)C(=O)N[C@@H](CCC(=O)O)C(=O)COc1c(F)c(F)cc(F)c1F
≤ 6.00

Reported pIC50, compound C[C@H](NC(=O)C(=O)Nc1c(F)cccc1F)C(=O)N[C@@H](CCC(=O)O)C(=O)COc1c(F)c(F)cc(F)c1F : ____
≤ 6.00

Entry COc1cc2ncn(CC3(O)CCN(C(=O)C(C)C)CC3)c(=O)c2cc1OC has what pIC50?
< 3.70

Entry Cc1ccc(NC(=O)C(=O)N[C@@H](C)C(=O)N[C@@H](CCC(=O)O)C(=O)COc2c(F)c(F)cc(F)c2F)nc1 : reported pIC50 = ?
≤ 6.00

Please give the measured pIC50 for this compound: C[C@H](NC(=O)c1cc(-c2ccccc2Cl)on1)C(=O)N[C@H](CC(=O)O)C(=O)COc1c(F)c(F)cc(F)c1F
7.58

// query pIC50 value for entry CC(C)(NC(=O)C(=O)Nc1c(F)cccc1F)C(=O)N[C@@H](CCC(=O)O)C(=O)COc1c(F)c(F)cc(F)c1F
≤ 6.00

// returns reported pIC50 for input CC(Cc1cccs1)C(=O)N1CCC(O)(Cn2cnc3ccccc3c2=O)CC1 (stereo not shown)
< 3.70

Using the record for C[C@H](NC(=O)c1cc(-c2ccccc2)n[nH]1)C(=O)N[C@@H](CC(=O)O)C(=O)COc1c(F)c(F)cc(F)c1F , report its pIC50.
7.94

Using the record for O=C(O)CC[C@H](NC(=O)Cn1ccc2ccc(Cl)cc2c1=O)C(=O)COc1c(F)c(F)cc(F)c1F , report its pIC50.
≤ 6.00

Entry Cc1nnc2nc3c(nn12)-c1ccc(Cl)cc1C3=O : reported pIC50 = ?
6.13

Which pIC50 value belongs to CN(C)c1ccc(N2C(=O)C=CC2=O)cc1 ?
< 4.00

Entry O=C(c1ccc2c(Cl)c3c(nc2c1)CCCC3)N1CCC(N2CCCCC2)CC1 : reported pIC50 = ?
< 3.70

Look up pIC50 for this compound: CN(C)CCNC(=O)c1ccc2c(Cl)c3c(nc2c1)CCCC3
< 3.70

Please give the measured pIC50 for this compound: CCCc1nnc2nc3c(nn12)-c1ccccc1C3=O
6.14

Recorded pIC50 of CN1C(=O)C(=O)c2cc(S(=O)(=O)N3CCC[C@H]3CNC(=O)CCCCCNC(=O)c3ccc(-c4c5ccc(=O)cc-5oc5cc(O)ccc45)c(C(=O)O)c3)ccc21 , please.
7.82
